Examples of compounds with documented pIC50 follow.
target: KRAS Q61H (Homo sapiens (Human), UniProt P01116+P62937, Q61H); assay: Ras-Raf disruption/FRET/MOA assay (BRAF RBD, Cyclophilin A); assay type: biochemical
Sequence (P01116 other isoform, or with tags, fused parts or gaps Q61H, one chain of several): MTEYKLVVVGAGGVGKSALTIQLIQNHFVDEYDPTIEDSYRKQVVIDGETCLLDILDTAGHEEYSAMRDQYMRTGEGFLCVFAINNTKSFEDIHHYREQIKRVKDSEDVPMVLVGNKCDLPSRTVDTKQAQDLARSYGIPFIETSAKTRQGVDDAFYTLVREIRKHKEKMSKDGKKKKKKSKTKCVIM
pIC50: −log10 of the molar value.
property name: pIC50

- CCn1c(-c2cccnc2[C@H](C)OC)c2c3cc(ccc31)-c1csc(n1)C[C@H](NC(=O)[C@H](C(C)C)N(C)C(=O)N1CCC[C@H](N(C)C)CC1)C(=O)N1CCC[C@H](N1)C(=O)OCC(C)(C)C2: 7.00 to 8.00
- CCn1c(-c2cccnc2[C@H](C)OC)c2c3cc(ccc31)-c1csc(n1)C[C@H](NC(=O)[C@H](C(C)C)N(C)C(=O)N1C[C@@H]3OCCN(C)[C@H]3C1)C(=O)N1CCC[C@H](N1)C(=O)OCC(C)(C)C2: 6.00 to 7.00
- CCO[C@@H]1c2nc(cs2)-c2ccc3c(c2)c(c(-c2cccnc2[C@H](C)OC)n3CC)CC(C)(C)COC(=O)[C@@H]2CCCN(N2)C(=O)[C@H]1NC(=O)[C@H]1[C@H](C)[C@@H]1c1cn(C)cn1: 7.00 to 8.00
- CCn1c(-c2cccnc2[C@H](C)OC)c2c3cc(ccc31)-c1csc(n1)C[C@H](NC(=O)[C@H](C(C)C)N(C)C(=O)N1CC[C@@H](F)[C@H](N)C1)C(=O)N1CCC[C@H](N1)C(=O)OCC(C)(C)C2: 7.00 to 8.00
- CCn1c(-c2cccnc2[C@H](C)OC)c2c3cc(ccc31)-c1csc(n1)[C@@H](OC)[C@H](NC(=O)[C@H](C(C)C)N(C)C(=O)N(C)C)C(=O)N1CCC[C@H](N1)C(=O)OCC(C)(C)C2: 6.00 to 7.00
- CCn1c(-c2cccnc2[C@H](C)OC)c2c3cc(ccc31)-c1csc(n1)C[C@H](NC(=O)[C@H](C(C)C)N(CCc1ccncc1)C1CC1)C(=O)N1CCC[C@H](N1)C(=O)OCC(C)(C)C2: 6.00 to 7.00
- CCn1c(-c2cccnc2[C@H](C)OC)c2c3cc(ccc31)-c1csc(n1)C[C@H](NC(=O)[C@H](C(C)C)N(C)C(=O)N1C[C@@H]3OCCN(C)[C@@H]3C1)C(=O)N1CCC[C@H](N1)C(=O)OCC(C)(C)C2: 7.00 to 8.00
- CCn1c(-c2cccnc2[C@H](C)OC)c2c3cc(ccc31)-c1cc(c3cn[nH]c3c1)C[C@H](NC(=O)[C@H](C(C)C)N(C)C(C)=O)C(=O)N1CCC[C@H](N1)C(=O)OCC(C)(C)C2: 6.00 to 7.00
- CCn1c(-c2cccnc2[C@H](C)OC)c2c3cc(ccc31)-c1csc(n1)C[C@H](NC(=O)[C@H](C(C)C)N(C)C(=O)N(C)C1COC1)C(=O)N1CCC[C@H](N1)C(=O)OCC(C)(C)C2: 7.00 to 8.00

====

target: KRAS WT (Homo sapiens (Human), UniProt P01116+P62937); test: Ras-Raf disruption/FRET/MOA assay (BRAF RBD, Cyclophilin A); format: biochemical; conditions: read-out: KRAS WT FRET data IC50
Sequence (P01116 other isoform, or with tags, fused parts or gaps): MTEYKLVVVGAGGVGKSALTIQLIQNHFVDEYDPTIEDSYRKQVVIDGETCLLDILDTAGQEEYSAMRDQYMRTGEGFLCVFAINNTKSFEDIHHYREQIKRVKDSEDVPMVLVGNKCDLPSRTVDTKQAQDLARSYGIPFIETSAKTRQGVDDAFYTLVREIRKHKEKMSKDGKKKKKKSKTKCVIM
Sequence (P62937 whole entry): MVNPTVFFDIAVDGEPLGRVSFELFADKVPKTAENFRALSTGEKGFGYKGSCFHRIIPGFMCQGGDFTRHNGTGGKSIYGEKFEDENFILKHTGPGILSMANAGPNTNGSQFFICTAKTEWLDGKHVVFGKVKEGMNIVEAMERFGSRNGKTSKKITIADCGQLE
property name: IC50

- CCn1c(-c2cccnc2[C@H](C)OC)c2c3cc(ccc31)-c1cc(O)cc(c1)C[C@H](NC(=O)[C@H](C(C)C)N(C)C(=O)[C@@H]1OCC[C@@H]1c1ccccc1)C(=O)N1CCC[C@H](N1)C(=O)OCC(C)(C)C2 [Compound A415]: 10 to 100 nM
- CCn1c(-c2cccnc2[C@H](C)OC)c2c3cc(ccc31)-c1cccc(c1)C[C@H](NC(=O)[C@H](C(C)C)N(C)C(=O)[C@H]1CCNC1)C(=O)N1CCC[C@H](N1)C(=O)OCC(C)(C)C2 [Compound A119]: 1000 to 10000 nM
- CCn1c(-c2cccnc2[C@H](C)OC)c2c3cc(ccc31)-c1cc(O)cc(c1)C[C@H](NC(=O)[C@H](C(C)C)N(C)C(=O)[C@@H]1CCN(C(=O)[C@]3(C)CCCN3C)C1)C(=O)N1CCC[C@H](N1)C(=O)OCC(C)(C)C2 [Compound A342]: 10 to 100 nM
- CCn1c(-c2cnccc2COC)c2c3cc(ccc31)-c1cc(O)cc(c1)C[C@H](NC(=O)[C@H](C(C)C)N(C)C(=O)[C@H]1CCN(C[C@@H](C)O)C1)C(=O)N1CCC[C@H](N1)C(=O)OCC(C)(C)C2 [Compound A31]: 100 to 1000 nM
- CCn1c(-c2cccnc2[C@H](C)OC)c2c3cc(ccc31)-c1csc(n1)C[C@H](NC(=O)[C@H](C(C)C)N(C)C(=O)N1C[C@H]3CCN(C)[C@H]3C1)C(=O)N1CCC[C@H](N1)C(=O)OCC(C)(C)C2 [Compound A568]: 100 to 1000 nM
- CCn1c(-c2cccnc2[C@H](C)OC)c2c3cc(ccc31)-c1csc(n1)C[C@H](NC(=O)[C@H](C(C)C)N(C)C(=O)N1CCS(=O)(=O)CC1)C(=O)N1CCC[C@H](N1)C(=O)OCC(C)(C)C2 [Compound A357]: 100 to 1000 nM
- CCn1c(-c2cccnc2[C@H](C)OC)c2c3cc(ccc31)-c1csc(n1)C[C@H](NC(=O)[C@H](C(C)C)N(C)C(=O)N1CC[C@H]1CN(C)C)C(=O)N1CCC[C@H](N1)C(=O)OCC(C)(C)C2 [Compound A508]: 100 to 1000 nM
- CCn1c(-c2cccnc2[C@H](C)OC)c2c3cc(ccc31)-c1cc(O)cc(c1)C[C@H](NC(=O)[C@H](C(C)C)N(C)C(=O)[C@@H]1CCN(C(=O)OC)[C@@H]1c1ccccc1)C(=O)N1CCC[C@H](N1)C(=O)OCC(C)(C)C2 [Compound A501]: 10 to 100 nM

====

Examples of compounds with documented IC50 follow.
target: KRAS G12C (Homo sapiens (Human), UniProt P01116+P62937, G12C); assay: Ras-Raf disruption/FRET/MOA assay (BRAF RBD, Cyclophilin A); assay type: biochemical; settings: read-out: KRAS G12C FRET IC50
Sequence (P01116-2 other isoform, or with tags, fused parts or gaps G12C, one chain of several): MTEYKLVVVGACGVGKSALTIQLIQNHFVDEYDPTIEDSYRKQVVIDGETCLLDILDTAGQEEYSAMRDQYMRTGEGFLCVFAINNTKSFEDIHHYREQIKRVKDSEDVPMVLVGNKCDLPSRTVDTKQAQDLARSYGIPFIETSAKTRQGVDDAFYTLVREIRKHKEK
property name: IC50

* CCn1c(-c2cccnc2[C@H](C)OC)c2c3cc(ccc31)-c1cc(O)cc(c1)C[C@H](NC(=O)[C@H](C(C)C)N(C)C(=O)[C@H]1CCN(C(=O)[C@@]3(C)CCCN3C)C1)C(=O)N1CCC[C@H](N1)C(=O)OCC(C)(C)C2 | 10 to 100 nM
* CCn1c(-c2cccnc2[C@H](C)OC)c2c3cc(ccc31)-c1csc(n1)C[C@H](NC(=O)[C@H](C(C)C)N(C)C(=O)N1[C@H](C)COC[C@H]1C)C(=O)N1CCC[C@H](N1)C(=O)OCC(C)(C)C2 | 10 to 100 nM
* CCn1c(-c2cccnc2[C@H](C)OC)c2c3cc(ccc31)-c1csc(n1)C[C@H](NC(=O)[C@H](C(C)C)N(C)C(=O)N1C[C@H](N)[C@@H](O)C1)C(=O)N1CCC[C@H](N1)C(=O)OCC(C)(C)C2 | 10 to 100 nM
* CCn1c(-c2cnccc2COC)c2c3cc(ccc31)-c1cc(O)cc(c1)C[C@H](NC(=O)[C@H](C(C)C)N1CCCC1=O)C(=O)N1CCC[C@H](N1)C(=O)OCC(C)(C)C2 | 100 to 1000 nM
* CCn1c(-c2cccnc2[C@H](C)OC)c2c3cc(ccc31)-c1cc(O)cc(c1)C[C@H](NC(=O)[C@H](C(C)C)N(C)C(=O)[C@H]1CC1(C)C)C(=O)N1CCC[C@H](N1)C(=O)OCC(C)(C)C2 | 100 to 1000 nM
* CCn1c(-c2cccnc2[C@H](C)OC)c2c3cc(ccc31)-c1csc(n1)C[C@H](NC(=O)[C@H](C(C)C)N(C)S(=O)(=O)N1CC(OC)C1)C(=O)N1CCC[C@H](N1)C(=O)OCC(C)(C)C2 | 100 to 1000 nM

====

target: KRAS G13D (Homo sapiens (Human), UniProt P01116+P62937, G13D); experiment: Ras-Raf disruption/FRET/MOA assay (BRAF RBD, Cyclophilin A); assay type: biochemical; settings: read-out: KRAS G13D FRET data IC50
Sequence (P01116 other isoform, or with tags, fused parts or gaps G13D): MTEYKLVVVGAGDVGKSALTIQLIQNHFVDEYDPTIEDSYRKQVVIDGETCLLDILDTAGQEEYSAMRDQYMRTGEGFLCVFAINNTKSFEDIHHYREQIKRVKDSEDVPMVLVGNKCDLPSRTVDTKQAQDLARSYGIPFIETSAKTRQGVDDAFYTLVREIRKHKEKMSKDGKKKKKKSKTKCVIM
Sequence (P62937 whole entry): as the sequence (P62937 whole entry) above
pIC50: −log10 of the molar value.
Examples of compounds with documented pIC50 follow.
property name: pIC50

• CCn1c(-c2cccnc2[C@H](C)OC)c2c3cc(ccc31)-c1csc(n1)C[C@H](NC(=O)[C@H](C(C)C)N(C)C(=O)N(C)[C@H]1CCN(C)C1)C(=O)N1CCC[C@H](N1)C(=O)OCC(C)(C)C2 = 6.00 to 7.00
• CCn1c(-c2cnccc2COC)c2c3cc(ccc31)-c1cc(O)cc(c1)C[C@H](NC(=O)[C@@H](NC(C)=O)C(C)C)C(=O)N1CCC[C@H](N1)C(=O)OCC(C)(C)C2 = 5.00 to 6.00
• CCn1c(-c2cnccc2COC)c2c3cc(ccc31)-c1cc(O)cc(c1)C[C@H](NC(=O)[C@H](C(C)C)N(C)C(=O)[C@H]1CCN(C[C@H](C)O)C1)C(=O)N1CCC[C@H](N1)C(=O)OCC(C)(C)C2 = 6.00 to 7.00
• CCn1c(-c2cccnc2[C@H](C)OC)c2c3cc(ccc31)-c1cccc(c1)C[C@H](NC(=O)[C@H](C(C)C)N(C)C(=O)[C@@H]1OCC[C@@H]1c1ccccc1)C(=O)N1CCC[C@H](N1)C(=O)OCC(C)(C)C2 = 6.00 to 7.00
• CCn1c(-c2cccnc2[C@H](C)OC)c2c3cc(ccc31)-c1csc(n1)C[C@H](NC(=O)[C@H](C(C)C)N(C)C(=O)N1CCS(=O)(=O)CC1)C(=O)N1CCC[C@H](N1)C(=O)OCC(C)(C)C2 = 6.00 to 7.00
• CCn1c(-c2cccnc2[C@H](C)OC)c2c3cc(ccc31)-c1csc(n1)C[C@H](NC(=O)[C@H](C(C)C)N1CCC3(CN(S(C)(=O)=O)C3)C1=O)C(=O)N1CCC[C@H](N1)C(=O)OCC(C)(C)C2 = < 5.00
